Here, each record is paired with measured Relative Luminescence Activity (Imax) data.
assay-text: Luminescence activity of ZZ-fused KAZ mutants in crude enzyme solutions
Format: biochemical
measurement-conditions: Table 4; ZZ-fused (pCold-ZZ-P-); 1 μL crude enzyme solution, 1 mM DTT; 1 μg coelenterazine

[
  {
    "molecule": "KAZ-N166R: KAZ with single amino acid substitution N166R (protein) FTLADFVGDWQQTAGYNQDQVLEQGGLSSLFQALGVSVTPIQKVVLSGENGLKADIHVIIPYEGLSGFQMGLIEMIFKVVYPVDDHHFKIILHYGTLVIDGVTPNMIDYFGRPYPGIAVFDGKQITVTGTLWNGNKIYDERLINPDGSLLFRVTINGVTGWRLCERILA",
    "Relative Luminescence Activity (Imax)": 3.6
  },
  {
    "molecule": "KAZ-I90V: KAZ with single amino acid substitution I90V (protein) FTLADFVGDWQQTAGYNQDQVLEQGGLSSLFQALGVSVTPIQKVVLSGENGLKADIHVIIPYEGLSGFQMGLIEMIFKVVYPVDDHHFKVILHYGTLVIDGVTPNMIDYFGRPYPGIAVFDGKQITVTGTLWNGNKIYDERLINPDGSLLFRVTINGVTGWRLCENILA",
    "Relative Luminescence Activity (Imax)": 1.8
  },
  {
    "molecule": "KAZ-Y138I: KAZ with single amino acid substitution Y138I, SEQ ID NO: 8 (protein) FTLADFVGDWQQTAGYNQDQVLEQGGLSSLFQALGVSVTPIQKVVLSGENGLKADIHVIIPYEGLSGFQMGLIEMIFKVVYPVDDHHFKIILHYGTLVIDGVTPNMIDYFGRPYPGIAVFDGKQITVTGTLWNGNKIIDERLINPDGSLLFRVTINGVTGWRLCENILA",
    "Relative Luminescence Activity (Imax)": 5.9
  }
]

Origin of the recorded values: patent US10907134B2
